- System: LXFL 529 NSCLC
- assay info: NCI tumour cell line growth inhibition, 48 h
recorded metric: log10 of TGI (log10 of the value in µM)
Please be aware that the numbers have been log10-transformed from TGI in µM.

O=P(Nc1cccc(Cl)c1)(Oc1ccccc1)N(CCCl)CCCl (stereo unspecified)	1.39

Lookup result for COC1C(C)OC(OC2CC(C)(O)Cc3cc4c(c(O)c32)C(=O)c2c(O)cc3c(c2C4=O)OC2OC3(C)C(O)C(N(C)C)C2O)C(OC)C1(C)OC (stereo unspecified) ; measured log10 of TGI: 0.45

Note to self: log10 of TGI recorded for Cc1ccc(S(=O)(=O)OC2CSSCC2OS(=O)(=O)c2ccc(C)cc2)cc1 (stereo unspecified) was 1.37

Please fill in: log10 of TGI reported for CCCCC1N=CNc2c1ccc1c2[nH]c2ccccc21 (stereo unspecified) = 0.58

The value of log10 of TGI measured for the molecule COc1cc([C@@H]2c3cc4c(cc3[C@@H](NC(=O)c3ccc(OC(C)=O)cc3)C3COC(=O)[C@@H]32)OCO4)cc(OC)c1O (stereo partly specified) turned out to be 1.65
